- System: HT29 colon
- assay-procedure: NCI tumour cell line growth inhibition, 48 h
measured-quantity: TGI

# count of solved cases: 4
compound	study-system	measured-value
CC(C)(C)OC(=O)N1CCN(CCn2cc(C(F)(F)F)c3c(Cl)ncnc32)CC1	HT29 colon	11.1 µM
COCCOC(=O)c1c(C)n([O-])c2cc(Cl)c(Cl)cc2[n+]1=O	HT29 colon	41.8 µM
Cc1ccc(S(=O)(=O)n2cc(-c3cc(C(F)(F)F)ccn3)c3cc(Br)ccc32)cc1	HT29 colon	> 100 µM
CN(O)c1nc(N(C)O)nc(N2CCOCC2)n1	HT29 colon	> 100 µM

Tell me its TGI given COC1=C(OC)C(=O)C(Cc2c(Cl)nc3sc(C)cn23)=C(C)C1=O as the entry.
36.3 µM

Tell me its TGI given CC(=O)C(=C(c1ccccc1)c1ccccc1)c1ccccc1 as the entry.
> 100 µM

Tell me its TGI given O=C(Nc1ccc(Cl)cc1)NS(=O)(=O)c1coc2cc(F)ccc2c1=O as the entry.
> 100 µM

Tell me its TGI given CCOc1ccccc1N1C(=O)C(=O)C(c2nc3ccccc3o2)C(=O)C1=O as the entry.
> 100 µM

Tell me its TGI given CCOC(=O)NC(=O)c1cn(CCOC(=O)CCCCCCCCC(=O)OCCn2cc(C(=O)NC(=O)OCC)c(=O)[nH]c2=O)c(=O)[nH]c1=O as the entry.
> 100 µM

Tell me its TGI given CN(C)Nc1cc(=O)[nH]c(=O)[nH]1 as the entry.
> 100 µM

Tell me its TGI given COc1ccc(-c2c(C#N)c(N)n(C3OCC(OC(C)=O)C(OC(C)=O)C3OC(C)=O)c(=S)c2C#N)cc1 (stereo unspecified) as the entry.
> 100 µM

----------
- System: MALME-3M melanoma
- assay-procedure: NCI tumour cell line growth inhibition, 48 h; in the data active = GI50 below about 0.43 µM; inactive = the rest
// one of active, inactive, no free text

smiles-text	discrete-label
COc1ccc(-c2cc(=O)[nH]c3c(OC)c4ccccc4c(OC)c23)cc1	inactive
COc1cnc2c(c1)C(=O)c1c-2n(CCCn2ccnc2)c(=O)c2cc(F)ccc12	active
Nc1ncnc2nc[nH]c12	inactive
Cc1cc2c(cc1C)N(C(=O)CCl)CC(=O)N2	inactive
COc1cc(/C=C/C(=O)c2cccc(Nc3nc(Nc4ccccc4)nc(Nc4ccccc4)n3)c2)cc(OC)c1OC	inactive

Tell me the recorded outcome of this test for COc1ccc(-c2cn(-c3cc(OC)c(OC)c(OC)c3)c(SCc3ccccc3)n2)cc1OC .
inactive

Tell me the recorded outcome of this test for COc1c(C)c2c(c(O)c1C/C=C(\C)CCC(=O)O)C(=O)OC2 .
inactive

Tell me the recorded outcome of this test for COc1cc(CSc2nc3ccc(C)cc3c(=O)n2-c2ccccc2)cc(OC)c1OC .
inactive

Tell me the recorded outcome of this test for Nc1c(C(=O)c2cccc(-c3ccncc3)c2)cnn1-c1ccc(F)cc1F .
inactive

Tell me the recorded outcome of this test for O=C1Nc2ccccc2/C1=C/C(=O)c1coc2c1C(=O)c1ccccc1C2=O .
inactive

----------
- Tested on: EKVX NSCLC
- assay-procedure: NCI tumour cell line growth inhibition, 48 h
Listing: TGI of selected molecules

# count of solved cases: 3
molecule	measured-quantity	measured-value
CNc1ncnc2c1ncn2C1C=CC(COS(N)(=O)=O)C1 (centres undefined)	TGI	> 100 µM
O=[N+]([O-])O.[Cu+2].[NH-]CC[NH-].[NH-]CC[NH-]	TGI	> 10 µM
CCC(C)(CC(C)(C)C(=O)NCC(=O)NC(Cc1ccccc1)C(=O)NC(Cc1ccccc1)C(=O)NCC(=O)NC1CC(OC2CC(O)(C(=O)CO)Cc3c(O)c4c(c(O)c32)C(=O)c2c(OC)cccc2C4=O)OC(C)C1O)C(=O)NCC(C)O (centres undefined)	TGI	> 150 µg/mL

Shift focus to the following entry.
Tell me its TGI given COC(=O)N/N=C(\Cc1ccccc1)CN(C)C as the entry.
> 100 µM
